Provide the recorded pIC50 for the entries that follow.
target: HLA-A*02:01; assay: IEDB peptide-MHC binding, purified MHC/competitive/radioactivity; bounds were set here for any values at or beyond the usual limits of such assays; conditions: source organism: Bordetella pertussis
Numbers only, as −log10 of the molar value.

LLHHILPIL = 5.83

Now for another entry.
So what does the record say about pIC50 for "LTWLAILAV" ?
5.39

----------
Task for the reader: assign each of the following sequences its reported IC50.
target: HLA-B*57:01; test: IEDB peptide-MHC binding, purified MHC/competitive/radioactivity; bounds were set here for any values at or beyond the usual limits of such assays; settings: source organism: Bordetella pertussis

LSSPSAITV = ≥ 70.4 µM
GVGLASTLW = 18.8 µM
DAGHEHDTW = 32.9 µM

Hey, can you go through the list below and give me IC50 for every item?
1. YTLRYLASY
2. KSYTLRYLA
3. KAGKLSATG
4. RGFAQRQQL
5. TSPYDGKYW

1. 0.00076 µM
2. 0.263 µM
3. 45.5 µM
4. 54.3 µM
5. ≥ 70.4 µM
